test.method.notes: OD615 S. cerevisiae growth inhibition, permissive medium, pilot counter-assay, permissive growth control for S. cerevisiae lifespan shortening project (AID 705)
test.conditions: OD615, 24 h, at 10 µM, stronger effect = higher value
Please mark YES if the recorded growth inhibition is equal to or greater than -10%, and NO if it falls below.

>  <compound>
CSC1=NCCN1C(=O)C(C)(C)Oc1ccc(Cl)cc1

>  <assigned.label>
YES

$$$$
>  <compound>
CC(=O)Nc1nc2n(n1)C(c1ccccc1)C=C(c1ccccc1)N2 (stereo not drawn)

>  <assigned.label>
YES

$$$$
>  <compound>
O=C(COc1ccccc1)NCCSc1ccccc1

>  <assigned.label>
NO

$$$$
>  <compound>
COc1ccc(N(CC(=O)NC2CCCCC2)S(=O)(=O)c2cccnc2)cc1

>  <assigned.label>
YES

$$$$
>  <compound>
Cn1c(C(=O)N2CCCC2)cc2c(=O)n(C)c3ccccc3c21

>  <assigned.label>
YES

$$$$
>  <compound>
Cc1cccc(N(C)c2cc(C)nc3nc(C)nn23)c1

>  <assigned.label>
NO

$$$$
>  <compound>
COc1cc(OC)c(NC(=O)c2ccc(Br)o2)cc1Cl

>  <assigned.label>
YES

$$$$
>  <compound>
COc1ccc(C2c3c(oc4ccccc4c3=O)C(=O)N2c2ccccn2)cc1 (stereo not drawn)

>  <assigned.label>
NO

$$$$
>  <compound>
COc1ccc(C)cc1Nc1cc(C)nc2nc(C)nn12

>  <assigned.label>
YES

$$$$
>  <compound>
Cn1c(=O)oc2cc(S(=O)(=O)NCCN3CCc4ccccc4C3)ccc21

>  <assigned.label>
NO

$$$$
>  <compound>
N=c1n(CCOc2ccccc2)c2ccccc2n1CCN1CCOCC1

>  <assigned.label>
YES

$$$$
>  <compound>
CC(C)Sc1nc(N)c2c3c(sc2n1)CN(C)CC3

>  <assigned.label>
NO

$$$$
>  <compound>
COc1ccc(N(CC(=O)NCc2ccco2)S(=O)(=O)c2c(C)nn(C)c2C)cc1

>  <assigned.label>
NO

$$$$
